- tested.on: Voltage-gated inwardly rectifying potassium channel KCNH2 (Homo sapiens, UniProt Q12809)
- Sequence (Q12809 whole entry): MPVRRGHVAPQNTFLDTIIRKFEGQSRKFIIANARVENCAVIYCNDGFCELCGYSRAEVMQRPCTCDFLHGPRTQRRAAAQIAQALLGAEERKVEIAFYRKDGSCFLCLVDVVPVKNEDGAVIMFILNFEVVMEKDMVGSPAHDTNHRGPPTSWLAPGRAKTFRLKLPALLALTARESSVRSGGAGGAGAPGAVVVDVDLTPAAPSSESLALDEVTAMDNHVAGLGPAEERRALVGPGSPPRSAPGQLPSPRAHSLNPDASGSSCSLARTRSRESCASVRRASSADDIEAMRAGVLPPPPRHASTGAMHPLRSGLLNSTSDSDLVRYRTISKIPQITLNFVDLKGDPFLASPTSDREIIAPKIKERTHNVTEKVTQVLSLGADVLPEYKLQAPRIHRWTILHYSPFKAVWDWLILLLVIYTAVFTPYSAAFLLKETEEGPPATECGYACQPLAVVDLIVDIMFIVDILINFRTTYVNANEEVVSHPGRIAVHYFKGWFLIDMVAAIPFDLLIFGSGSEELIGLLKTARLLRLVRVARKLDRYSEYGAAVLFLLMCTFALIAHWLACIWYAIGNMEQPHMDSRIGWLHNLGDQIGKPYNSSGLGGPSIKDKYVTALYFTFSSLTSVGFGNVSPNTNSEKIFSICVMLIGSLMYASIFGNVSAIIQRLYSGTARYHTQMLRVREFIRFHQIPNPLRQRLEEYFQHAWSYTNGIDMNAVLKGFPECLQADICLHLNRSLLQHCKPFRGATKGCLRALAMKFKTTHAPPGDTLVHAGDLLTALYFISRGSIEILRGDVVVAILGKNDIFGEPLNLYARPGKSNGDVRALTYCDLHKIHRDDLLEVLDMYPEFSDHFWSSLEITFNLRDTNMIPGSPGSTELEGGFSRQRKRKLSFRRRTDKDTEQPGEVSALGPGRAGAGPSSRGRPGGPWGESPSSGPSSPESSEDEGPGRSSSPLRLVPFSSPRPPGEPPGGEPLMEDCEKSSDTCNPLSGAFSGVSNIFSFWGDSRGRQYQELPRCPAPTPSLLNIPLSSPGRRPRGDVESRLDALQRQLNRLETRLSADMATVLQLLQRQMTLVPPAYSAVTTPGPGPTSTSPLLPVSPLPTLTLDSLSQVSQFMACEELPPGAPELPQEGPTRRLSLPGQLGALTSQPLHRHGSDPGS
measured.parameter: Ki

Which Ki reading was recorded for the molecule COC(=O)N(NC(=O)c1c(OC)c(-c2ccccc2)nc2ccccc12)c1ccccc1 ?
> 8 µM

====

- assay.info: Half life in dog
- Type: ADME, organism-based, Canis lupus familiaris
- assay.setup: in vivo
measured.parameter: half-life (min)
Numeric only. Scale: min

Which half-life value belongs to COC(=O)N(NC(=O)c1c(OC)c(-c2ccccc2)nc2ccccc12)c1ccccc1 ?
180

====

- tested.on: Cytochrome P450 2C9 (Homo sapiens, UniProt P11712)
- Sequence (P11712 whole entry): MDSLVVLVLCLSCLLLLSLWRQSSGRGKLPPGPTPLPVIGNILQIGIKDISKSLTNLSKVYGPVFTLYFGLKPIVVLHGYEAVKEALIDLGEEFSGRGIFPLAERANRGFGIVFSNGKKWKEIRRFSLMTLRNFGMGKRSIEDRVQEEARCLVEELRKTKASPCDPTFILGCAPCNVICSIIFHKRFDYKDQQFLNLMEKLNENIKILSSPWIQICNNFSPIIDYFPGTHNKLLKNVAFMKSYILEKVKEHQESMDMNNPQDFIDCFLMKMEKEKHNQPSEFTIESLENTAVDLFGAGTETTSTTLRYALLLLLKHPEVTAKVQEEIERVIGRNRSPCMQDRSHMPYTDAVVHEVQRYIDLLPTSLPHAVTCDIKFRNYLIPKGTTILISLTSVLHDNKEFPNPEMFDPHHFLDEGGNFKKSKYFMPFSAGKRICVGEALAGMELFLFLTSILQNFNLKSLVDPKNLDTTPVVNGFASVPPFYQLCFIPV
pIC50: −log10 of the molar value.
measured.parameter: pIC50

Need pIC50, item COC(=O)N(NC(=O)c1c(OC)c(-c2ccccc2)nc2ccccc12)c1ccccc1
< 4.52
